Ref: ChEMBL document CHEMBL4229414

Reported inhibition (INH) values for the following compounds.
assay target: UniProt Q12809
assay details: Inhibition of human ERG at 1 uM relative to control
study conditions: 1 µM
Hi! Could you send only the number? It should be in %, unit omitted.

Sample answers from the record:
Enquiry: Quick one: give measured inhibition (INH) for CCCN1[C@H]2COC[C@H]1CC(c1ccccc1OC)C2 (relative stereo; 20)
Return: 17

Enquiry: Provide inhibition (INH) value for the following compound: CCCN1[C@H]2CC[C@H]1CC(c1ccccc1OC)C2 (relative stereo; 4)
Return: 10

Enquiry: Provide inhibition (INH) value for the following compound: CCCN1[C@H]2COC[C@H]1CC(c1ccccc1OC)C2 (relative stereo; 16)
Return: 6

We next turn to a different compound, shown below.
Enquiry: Note down inhibition (INH) recorded for CCCN1[C@H]2CC[C@H]1CC(c1ccccc1OC)C2 (relative stereo; 8a)
Return: 22

###

# inhibition at 1 µM per entry
assay target: hERG (KCNH2) (Homo sapiens, UniProt Q12809)
Sequence (Q12809 whole entry): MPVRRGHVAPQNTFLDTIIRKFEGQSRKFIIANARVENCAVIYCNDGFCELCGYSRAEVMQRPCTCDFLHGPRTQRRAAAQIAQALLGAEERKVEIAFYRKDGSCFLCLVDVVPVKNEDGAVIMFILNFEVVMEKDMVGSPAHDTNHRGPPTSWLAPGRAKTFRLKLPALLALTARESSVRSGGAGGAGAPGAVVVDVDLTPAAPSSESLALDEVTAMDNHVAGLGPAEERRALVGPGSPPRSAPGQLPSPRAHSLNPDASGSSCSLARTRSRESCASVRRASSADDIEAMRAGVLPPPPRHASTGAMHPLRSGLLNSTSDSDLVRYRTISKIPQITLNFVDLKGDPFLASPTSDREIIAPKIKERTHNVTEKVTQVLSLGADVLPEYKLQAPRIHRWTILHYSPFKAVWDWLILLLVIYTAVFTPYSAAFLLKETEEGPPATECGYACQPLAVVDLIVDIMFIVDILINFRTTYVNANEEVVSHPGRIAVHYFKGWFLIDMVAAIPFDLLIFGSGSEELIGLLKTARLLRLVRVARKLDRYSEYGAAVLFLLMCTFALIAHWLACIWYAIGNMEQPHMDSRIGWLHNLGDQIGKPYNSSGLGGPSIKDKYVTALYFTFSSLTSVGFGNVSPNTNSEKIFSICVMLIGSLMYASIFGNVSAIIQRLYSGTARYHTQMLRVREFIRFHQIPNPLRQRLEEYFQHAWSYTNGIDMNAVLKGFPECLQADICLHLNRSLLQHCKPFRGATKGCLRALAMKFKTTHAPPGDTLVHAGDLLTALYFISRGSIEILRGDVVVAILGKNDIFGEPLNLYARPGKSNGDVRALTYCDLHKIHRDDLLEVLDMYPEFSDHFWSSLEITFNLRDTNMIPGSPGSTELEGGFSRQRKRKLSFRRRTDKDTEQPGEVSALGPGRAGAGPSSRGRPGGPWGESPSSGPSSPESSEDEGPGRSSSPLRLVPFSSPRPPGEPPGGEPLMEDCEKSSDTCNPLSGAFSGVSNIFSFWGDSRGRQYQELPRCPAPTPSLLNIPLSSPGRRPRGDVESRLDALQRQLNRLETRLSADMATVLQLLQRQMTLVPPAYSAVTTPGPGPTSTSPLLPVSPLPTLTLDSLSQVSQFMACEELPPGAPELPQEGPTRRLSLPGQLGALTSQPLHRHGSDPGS
assay details: Inhibition of human ERG at 1 uM relative to control
Write down the numeric answer in % and omit the unit.

Enquiry: Provide inhibition at 1 µM, tested on hERG (KCNH2) (Homo sapiens, UniProt Q12809), for "CCCN1CCN(c2ccccc2OC)CC1" .
Return: 8

Enquiry: Quote hERG (KCNH2) (Homo sapiens, UniProt Q12809) inhibition at 1 µM for entry "CCCN1C[C@H]2OC[C@@H]1C[C@@H]2c1ccccc1OC" .
Return: 0

Enquiry: Consider the compound "CCCN1C[C@H]2OC[C@@H]1C[C@H]2c1ccccc1OC" tested on hERG (KCNH2) (Homo sapiens, UniProt Q12809); state its inhibition at 1 µM.
Return: 3

Others:
Enquiry: Look up hERG (KCNH2) (Homo sapiens, UniProt Q12809) data: inhibition at 1 µM of CCCN1[C@H]2CC[C@H]1CC(c1cc(OC)c(OC)c(OC)c1)C2 (relative stereo) , then report it.
Return: 20

Enquiry: State recorded inhibition at 1 µM with hERG (KCNH2) (Homo sapiens, UniProt Q12809), entry CCCN1[C@H]2CC[C@H]1CC(c1cccc(OC)c1)C2 (relative stereo) , no comment.
Return: 30

Enquiry: GET inhibition at 1 µM where system = hERG (KCNH2) (Homo sapiens, UniProt Q12809) and item = "CCCN1[C@@H]2COC[C@H]1CN(c1ccccc1OC)C2"
Return: 2

Enquiry: Report value only: inhibition at 1 µM, hERG (KCNH2) (Homo sapiens, UniProt Q12809), "CCCN1CCC(c2ccccc2OC)CC1"
Return: 2

Enquiry: State measured inhibition at 1 µM of the compound CCCN1[C@H]2CC[C@H]1CC(c1ccc(OC)c(OC)c1)C2 (relative stereo) with hERG (KCNH2) (Homo sapiens, UniProt Q12809).
Return: 36

Enquiry: Give inhibition at 1 µM only, for "CCCN1C[C@H]2OC[C@@H]1C[C@]2(O)c1ccccc1OC" , using hERG (KCNH2) (Homo sapiens, UniProt Q12809) data.
Return: 4

Enquiry: State inhibition at 1 µM on hERG (KCNH2) (Homo sapiens, UniProt Q12809). Entry: CCCN1[C@H]2CC[C@H]1CC(O)(c1ccccc1OC)C2 (relative stereo)
Return: 7

Enquiry: Give inhibition at 1 µM only, for CCCN1[C@H]2CC[C@H]1CC(c1ccc(OC)cc1)C2 (relative stereo) , using hERG (KCNH2) (Homo sapiens, UniProt Q12809) data.
Return: 58

Enquiry: Output reported inhibition at 1 µM of the compound "CCCN1C[C@H]2OC[C@@H]1C[C@@]2(O)c1ccccc1OC" on hERG (KCNH2) (Homo sapiens, UniProt Q12809).
Return: 3
